# inhibition at 20 ppm per record follows
- Test system: Glomerella lagenarium (Colletotrichum lagenarium)
- protocol.text: Glomerella lagenarium (Colletotrichum lagenarium) liquid culture / cucumber / preventative (anthracnose)
- Type: cell-based
- details: Colletotrichum orbiculare; 20 ppm in the applied formulation; conidia in PDB nutrient broth, 24° C.; 3 to 4 days after application; compared to untreated; read-out: disease control (inhibition of growth measured photometrically)
quantity: inhibition at 20 ppm

molecule: CCCN(Cc1ccc(-c2noc(C(F)(F)F)n2)cc1)S(=O)(=O)Cc1ccccc1
assayed.system: Glomerella lagenarium (Colletotrichum lagenarium)
quantity: inhibition at 20 ppm
experimental.value: ≥ 80%
//
molecule: CCCS(=O)(=O)N(C)Cc1ccc(-c2noc(C(F)(F)F)n2)cc1
assayed.system: Glomerella lagenarium (Colletotrichum lagenarium)
quantity: inhibition at 20 ppm
experimental.value: ≥ 80%
//
molecule: CCN(Cc1ccc(-c2noc(C(F)(F)F)n2)cc1)S(=O)(=O)N(C)C
assayed.system: Glomerella lagenarium (Colletotrichum lagenarium)
quantity: inhibition at 20 ppm
experimental.value: ≥ 80%
//
molecule: CCCN(Cc1ccc(-c2noc(C(F)(F)F)n2)cc1)S(=O)(=O)CC1CCOC1 (stereo not shown)
assayed.system: Glomerella lagenarium (Colletotrichum lagenarium)
quantity: inhibition at 20 ppm
experimental.value: ≥ 80%
//
molecule: O=S(=O)(NCc1ccc(-c2noc(C(F)(F)F)n2)cc1)N1CCCC1
assayed.system: Glomerella lagenarium (Colletotrichum lagenarium)
quantity: inhibition at 20 ppm
experimental.value: ≥ 80%
//
molecule: CON(Cc1ccc(-c2noc(C(F)(F)F)n2)c(F)c1)S(C)(=O)=O
assayed.system: Glomerella lagenarium (Colletotrichum lagenarium)
quantity: inhibition at 20 ppm
experimental.value: ≥ 80%
//
molecule: CCCN(Cc1ccc(-c2noc(C(F)(F)F)n2)cc1)S(=O)(=O)CC
assayed.system: Glomerella lagenarium (Colletotrichum lagenarium)
quantity: inhibition at 20 ppm
experimental.value: ≥ 80%
//
molecule: CN(Cc1ccc(-c2noc(C(F)(F)F)n2)cc1)S(=O)(=O)CC1CCOC1 (stereo not shown)
assayed.system: Glomerella lagenarium (Colletotrichum lagenarium)
quantity: inhibition at 20 ppm
experimental.value: ≥ 80%
//
molecule: CCN(Cc1ccc(-c2noc(C(F)(F)F)n2)cc1)S(=O)(=O)N1CCCC1
assayed.system: Glomerella lagenarium (Colletotrichum lagenarium)
quantity: inhibition at 20 ppm
experimental.value: ≥ 80%
//
molecule: Cc1ccc(S(=O)(=O)NCc2ccc(-c3noc(C(F)(F)F)n3)cc2)s1
assayed.system: Glomerella lagenarium (Colletotrichum lagenarium)
quantity: inhibition at 20 ppm
experimental.value: ≥ 80%
//
molecule: CCN(Cc1ccc(-c2noc(C(F)(F)F)n2)cc1)S(=O)(=O)CCC(=O)OC
assayed.system: Glomerella lagenarium (Colletotrichum lagenarium)
quantity: inhibition at 20 ppm
experimental.value: ≥ 80%
//
molecule: CCN(Cc1ccc(-c2noc(C(F)(F)F)n2)cc1)S(=O)(=O)CC
assayed.system: Glomerella lagenarium (Colletotrichum lagenarium)
quantity: inhibition at 20 ppm
experimental.value: ≥ 80%
//
molecule: CN(Cc1ccc(-c2noc(C(F)(F)F)n2)cc1)S(=O)(=O)N1CCCC1
assayed.system: Glomerella lagenarium (Colletotrichum lagenarium)
quantity: inhibition at 20 ppm
experimental.value: ≥ 80%
//
molecule: O=S(=O)(NCc1ccc(-c2noc(C(F)(F)F)n2)cc1)c1ccccc1
assayed.system: Glomerella lagenarium (Colletotrichum lagenarium)
quantity: inhibition at 20 ppm
experimental.value: ≥ 80%
//
molecule: CCN(Cc1ccc(-c2noc(C(F)(F)F)n2)cc1)S(=O)(=O)CC1CCOC1 (stereo not shown)
assayed.system: Glomerella lagenarium (Colletotrichum lagenarium)
quantity: inhibition at 20 ppm
experimental.value: ≥ 80%
//
molecule: CCCN(Cc1ccc(-c2noc(C(F)(F)F)n2)cc1)S(=O)(=O)C1CC1
assayed.system: Glomerella lagenarium (Colletotrichum lagenarium)
quantity: inhibition at 20 ppm
experimental.value: ≥ 80%
//
molecule: CCN(Cc1ccc(-c2noc(C(F)(F)F)n2)cc1F)S(C)(=O)=O
assayed.system: Glomerella lagenarium (Colletotrichum lagenarium)
quantity: inhibition at 20 ppm
experimental.value: ≥ 80%
//
molecule: CCNS(=O)(=O)N(C)Cc1ccc(-c2noc(C(F)(F)F)n2)cc1
assayed.system: Glomerella lagenarium (Colletotrichum lagenarium)
quantity: inhibition at 20 ppm
experimental.value: ≥ 80%
//
molecule: COC(=O)CCS(=O)(=O)NCc1ccc(-c2noc(C(F)(F)F)n2)cc1
assayed.system: Glomerella lagenarium (Colletotrichum lagenarium)
quantity: inhibition at 20 ppm
experimental.value: ≥ 80%
//
molecule: CNS(=O)(=O)N(C)Cc1ccc(-c2noc(C(F)(F)F)n2)cc1
assayed.system: Glomerella lagenarium (Colletotrichum lagenarium)
quantity: inhibition at 20 ppm
experimental.value: ≥ 80%
//
molecule: CC(C)N(Cc1ccc(-c2noc(C(F)(F)F)n2)cc1)S(=O)(=O)N(C)C
assayed.system: Glomerella lagenarium (Colletotrichum lagenarium)
quantity: inhibition at 20 ppm
experimental.value: ≥ 80%
//
molecule: CCNS(=O)(=O)N(Cc1ccc(-c2noc(C(F)(F)F)n2)cc1)C1CC1
assayed.system: Glomerella lagenarium (Colletotrichum lagenarium)
quantity: inhibition at 20 ppm
experimental.value: ≥ 80%
//
molecule: CCS(=O)(=O)N(Cc1ccc(-c2noc(C(F)(F)F)n2)cc1)C1CC1
assayed.system: Glomerella lagenarium (Colletotrichum lagenarium)
quantity: inhibition at 20 ppm
experimental.value: ≥ 80%
//
molecule: CCS(=O)(=O)NCc1ccc(-c2noc(C(F)(F)F)n2)c(F)c1
assayed.system: Glomerella lagenarium (Colletotrichum lagenarium)
quantity: inhibition at 20 ppm
experimental.value: ≥ 80%
//
molecule: O=S(=O)(NCc1ccc(-c2noc(C(F)(F)F)n2)cc1F)C1CC1
assayed.system: Glomerella lagenarium (Colletotrichum lagenarium)
quantity: inhibition at 20 ppm
experimental.value: ≥ 80%
//
molecule: CCS(=O)(=O)N(Cc1ccc(-c2noc(C(F)(F)F)n2)cc1)OC
assayed.system: Glomerella lagenarium (Colletotrichum lagenarium)
quantity: inhibition at 20 ppm
experimental.value: ≥ 80%
//
molecule: CN(Cc1ccc(-c2noc(C(F)(F)F)n2)cc1)S(=O)(=O)CC1CC1
assayed.system: Glomerella lagenarium (Colletotrichum lagenarium)
quantity: inhibition at 20 ppm
experimental.value: ≥ 80%
//
molecule: O=S(=O)(C1CC1)N(Cc1ccc(-c2noc(C(F)(F)F)n2)cc1)C1CC1
assayed.system: Glomerella lagenarium (Colletotrichum lagenarium)
quantity: inhibition at 20 ppm
experimental.value: ≥ 80%
//
molecule: CCCNS(=O)(=O)N(C)Cc1ccc(-c2noc(C(F)(F)F)n2)cc1
assayed.system: Glomerella lagenarium (Colletotrichum lagenarium)
quantity: inhibition at 20 ppm
experimental.value: ≥ 80%
//
molecule: O=S(=O)(N1CCOCC1)N(Cc1ccc(-c2noc(C(F)(F)F)n2)cc1)C1CC1
assayed.system: Glomerella lagenarium (Colletotrichum lagenarium)
quantity: inhibition at 20 ppm
experimental.value: ≥ 80%
//
molecule: CCCNS(=O)(=O)N(Cc1ccc(-c2noc(C(F)(F)F)n2)cc1)C1CC1
assayed.system: Glomerella lagenarium (Colletotrichum lagenarium)
quantity: inhibition at 20 ppm
experimental.value: ≥ 80%
//
molecule: CN(Cc1ccc(-c2noc(C(F)(F)F)n2)cc1)S(=O)(=O)Cc1ccccc1
assayed.system: Glomerella lagenarium (Colletotrichum lagenarium)
quantity: inhibition at 20 ppm
experimental.value: ≥ 80%
//
molecule: CCN(Cc1ccc(-c2noc(C(F)(F)F)n2)cc1)S(C)(=O)=O
assayed.system: Glomerella lagenarium (Colletotrichum lagenarium)
quantity: inhibition at 20 ppm
experimental.value: ≥ 80%
//
molecule: Cc1ccc(S(=O)(=O)NCc2ccc(-c3noc(C(F)(F)F)n3)cc2F)s1
assayed.system: Glomerella lagenarium (Colletotrichum lagenarium)
quantity: inhibition at 20 ppm
experimental.value: ≥ 80%

* * *

- System: Glomerella lagenarium (Colletotrichum lagenarium)
- protocol.text: Glomerella lagenarium (Colletotrichum lagenarium) liquid culture / cucumber / preventative (anthracnose)
- Format: cell-based
- details: Colletotrichum orbiculare; 20 ppm in the applied formulation; conidia in PDB nutrient broth, 24° C.; 3 to 4 days after application; compared to untreated; read-out: disease control (inhibition of growth measured photometrically)
# inhibition at 20 ppm per record follows
quantity: inhibition at 20 ppm

compound: CCNS(=O)(=O)N(Cc1ccc(-c2noc(C(F)(F)F)n2)cc1)OC [Compound 1.18]
quantity: inhibition at 20 ppm
experimental.value: ≥ 80%

compound: CCN(Cc1ccc(-c2noc(C(F)(F)F)n2)cc1F)S(=O)(=O)N(C)C [Compound 1.105]
quantity: inhibition at 20 ppm
experimental.value: ≥ 80%

compound: CC(C)N(Cc1ccc(-c2noc(C(F)(F)F)n2)cc1)S(=O)(=O)C1CC1 [Compound 1.98]
quantity: inhibition at 20 ppm
experimental.value: ≥ 80%

compound: O=S(=O)(CC1CC1(Cl)Cl)NCc1ccc(-c2noc(C(F)(F)F)n2)c(F)c1 (centres unmarked) [Compound 3.16]
quantity: inhibition at 20 ppm
experimental.value: ≥ 80%

compound: CCCS(=O)(=O)NCc1ccc(-c2noc(C(F)(F)F)n2)cc1F [Compound 2.6]
quantity: inhibition at 20 ppm
experimental.value: ≥ 80%

compound: CCN(Cc1ccc(-c2noc(C(F)(F)F)n2)cc1)S(=O)(=O)NC [Compound 1.63]
quantity: inhibition at 20 ppm
experimental.value: ≥ 80%

compound: CCCCS(=O)(=O)N(C)Cc1ccc(-c2noc(C(F)(F)F)n2)cc1 [Compound 1.55]
quantity: inhibition at 20 ppm
experimental.value: ≥ 80%

compound: CCCS(=O)(=O)NCc1ccc(-c2noc(C(F)(F)F)n2)c(F)c1 [Compound 2.5]
quantity: inhibition at 20 ppm
experimental.value: ≥ 80%

compound: CC(C)N(Cc1ccc(-c2noc(C(F)(F)F)n2)cc1)S(=O)(=O)N1CCCC1 [Compound 1.97]
quantity: inhibition at 20 ppm
experimental.value: ≥ 80%

compound: CS(=O)(=O)NCc1ccc(-c2noc(C(F)(F)F)n2)cc1F [Compound 2.27]
quantity: inhibition at 20 ppm
experimental.value: ≥ 80%

compound: COC(=O)CS(=O)(=O)NCc1ccc(-c2noc(C(F)(F)F)n2)c(F)c1 [Compound 2.20]
quantity: inhibition at 20 ppm
experimental.value: ≥ 80%

compound: O=S(=O)(NCc1ccc(-c2noc(C(F)(F)F)n2)c(F)c1)c1ccccc1 [Compound 3.9]
quantity: inhibition at 20 ppm
experimental.value: ≥ 80%

compound: C/C=C/S(=O)(=O)N(CCC)Cc1ccc(-c2noc(C(F)(F)F)n2)cc1 [Compound 1.75]
quantity: inhibition at 20 ppm
experimental.value: ≥ 80%

compound: CCCCS(=O)(=O)NCc1ccc(-c2noc(C(F)(F)F)n2)cc1F [Compound 2.23]
quantity: inhibition at 20 ppm
experimental.value: ≥ 80%

compound: CS(=O)(=O)NCc1ccc(-c2noc(C(F)(F)F)n2)cc1 [Compound 2.13]
quantity: inhibition at 20 ppm
experimental.value: ≥ 80%

compound: O=S(=O)(CC1CCOC1)NCc1ccc(-c2noc(C(F)(F)F)n2)cc1F (centres unmarked) [Compound 3.30]
quantity: inhibition at 20 ppm
experimental.value: ≥ 80%

compound: CCN(Cc1ccc(-c2noc(C(F)(F)F)n2)c(F)c1F)S(=O)(=O)N(C)C [Compound 1.107]
quantity: inhibition at 20 ppm
experimental.value: ≥ 80%
